Assay: Metabolic stability in human liver microsomes assessed as microsomal intrinsic clearance at 1 uM by LC-MS/MS analysis
Format: ADME, Microsome
Conditions: read-out: CLH
Below: a set of entries, each annotated with reported microsomal CLint at 1 µM.
Write the answer as a number in µL/min/mg, unit excluded.

Below, each entry is followed by its recorded microsomal CLint at 1 µM result.
O=C(O)c1cn(C2CC2)c2cc(Nc3nccc(Cc4ccc(F)cc4F)n3)ccc2c1=O ... 30.8
Cc1ccc(Cc2ccnc(Nc3ccc4c(=O)c(C(=O)O)cn(C5CC5)c4c3)n2)cc1C ... 28.2

// moving on: another record for microsomal CLint at 1 µM
Measured microsomal CLint at 1 µM of Cc1ncc2n1-c1ccc(Cl)cc1C(c1ccccc1F)=NC2 : 1250
